# tested_system: Nanoluciferase-BRD9 fusion protein (Homo sapiens (Human), UniProt Q9H8M2)
# Sequence (Q9H8M2 whole entry, the tested form may be a part): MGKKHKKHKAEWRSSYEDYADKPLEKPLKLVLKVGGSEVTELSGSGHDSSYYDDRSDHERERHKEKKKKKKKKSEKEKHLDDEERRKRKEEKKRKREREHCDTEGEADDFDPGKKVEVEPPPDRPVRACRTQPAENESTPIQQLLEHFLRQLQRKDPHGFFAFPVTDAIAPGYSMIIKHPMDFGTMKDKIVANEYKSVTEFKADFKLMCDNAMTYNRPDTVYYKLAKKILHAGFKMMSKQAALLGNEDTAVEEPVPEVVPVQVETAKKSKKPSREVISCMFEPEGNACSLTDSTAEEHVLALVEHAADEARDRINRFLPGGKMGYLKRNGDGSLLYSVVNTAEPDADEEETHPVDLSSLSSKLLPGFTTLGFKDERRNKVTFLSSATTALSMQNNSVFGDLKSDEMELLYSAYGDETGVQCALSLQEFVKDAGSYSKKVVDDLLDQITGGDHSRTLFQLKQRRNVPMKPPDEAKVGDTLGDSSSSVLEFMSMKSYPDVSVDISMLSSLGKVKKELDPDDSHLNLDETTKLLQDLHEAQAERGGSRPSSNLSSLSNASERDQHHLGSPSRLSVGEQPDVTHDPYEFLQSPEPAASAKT
# assay_method_text: SYO1 BRD9 NanoLuc degradation assay
# Format: cell-based
# protocol_conditions: Table 5B; SYO-1 cells expressing 3×FLAG-NLuc-BRD9, 6 hours; read-out: SYO1 BRD9-NanoLuc degradation IC50
result_type: DC50

| compound | DC50 |
| --- | --- |
| COc1cc(-c2cn(C)c(=O)c3cnccc23)cc(OC)c1CN1CCC(C(=O)N2CCC3(CC2)CC(Oc2ccc4c(c2)C(=O)N(C2CCC(=O)NC2=O)C4=O)C3)CC1 (centres unmarked) | < 10 nM |

Report value: DC50, system: Nanoluciferase-BRD9 fusion protein (Homo sapiens (Human), UniProt Q9H8M2), compound: COc1cc(-c2cn(C)c(=O)c3cnccc23)cc(OC)c1CN1CC(CC(=O)N[C@@H]2C[C@]23CCN(c2ccc4c(c2)C(=O)N(C2CCC(=O)NC2=O)C4=O)C3)C1 (some centres unmarked)
100 to 1000 nM

###

# tested_system: Nanoluciferase-BRD9 fusion protein (Homo sapiens (Human), UniProt Q9H8M2)
# assay_method_text: SYO1 BRD9 NanoLuc degradation assay
# Type: cell-based
# protocol_conditions: Table 5A; SYO-1 cells expressing 3×FLAG-NLuc-BRD9, 6 hours; read-out: SYO1 BRD9-NanoLuc degradation IC50
result_type: DC50

See these solved cases before continuing.
| compound | DC50 |
| --- | --- |
| COc1cc(-c2cn(C)c(=O)c3cnccc23)cc(OC)c1CN1CC2(CN(CCOc3ccc4c(c3)C(=O)N(C3CCC(=O)NC3=O)C4=O)C2)C1 (stereo not shown) | 100 to 1000 nM |
| COc1cc(-c2cn(C)c(=O)c3cnccc23)cc(OC)c1CN1CCC2(CC1)CN(CCCCCOc1ccc3c(c1)C(=O)N(C1CCC(=O)NC1=O)C3=O)CCO2 (stereo not shown) | < 10 nM |
| COc1cc(-c2cn(C)c(=O)c3cnccc23)cc(OC)c1CN1CC2(CC(C(=O)NCCCCCCNc3cccc4c3C(=O)N(C3CCC(=O)NC3=O)C4=O)C2)C1 (stereo not shown) | > 1000 nM |
| COc1cc(-c2cn(C)c(=O)c3cnccc23)cc(OC)c1CN1CCC2(CC1)CN(C(=O)CCOCCOc1cccc3c1C(=O)N(C1CCC(=O)NC1=O)C3=O)C2 (stereo not shown) | 10 to 100 nM |
| COc1cc(-c2cn(C)c(=O)c3cnccc23)cc(OC)c1CN1CCN(CCCCCOc2ccc3c(c2)C(=O)N(C2CCC(=O)NC2=O)C3=O)CC1 (stereo not shown) | < 10 nM |

Report value: DC50, system: Nanoluciferase-BRD9 fusion protein (Homo sapiens (Human), UniProt Q9H8M2), compound: COc1cc(-c2cn(C)c(=O)c3cnccc23)cc(OC)c1CN1CCC2(C[C@H]2NC(=O)CCOCCOc2cccc3c2C(=O)N(C2CCC(=O)NC2=O)C3=O)C1 (stereo partly shown)
10 to 100 nM

Report value: DC50, system: Nanoluciferase-BRD9 fusion protein (Homo sapiens (Human), UniProt Q9H8M2), compound: COc1cc(-c2cn(C)c(=O)c3cnccc23)cc(OC)c1CNCCCN1CC(Oc2ccc3c(c2)C(=O)N(C2CCC(=O)NC2=O)C3=O)C1 (stereo not shown)
10 to 100 nM

Report value: DC50, system: Nanoluciferase-BRD9 fusion protein (Homo sapiens (Human), UniProt Q9H8M2), compound: COc1cc(-c2cn(C)c(=O)c3cnccc23)cc(OC)c1CN1CC(C)(C(=O)NCCCCCCCCNc2cccc3c2C(=O)N(C2CCC(=O)NC2=O)C3=O)C1 (stereo not shown)
< 10 nM

Report value: DC50, system: Nanoluciferase-BRD9 fusion protein (Homo sapiens (Human), UniProt Q9H8M2), compound: COc1cc(-c2cn(C)c(=O)c3cnccc23)cc(OC)c1CN1CC[C@H]1C(=O)NCCN(C)CCNc1cccc2c1C(=O)N(C1CCC(=O)NC1=O)C2=O (stereo partly shown)
100 to 1000 nM

Report value: DC50, system: Nanoluciferase-BRD9 fusion protein (Homo sapiens (Human), UniProt Q9H8M2), compound: COc1cc(-c2cn(C)c(=O)c3cnccc23)cc(OC)c1CN1CC2(CC(NC(=O)CCOCCOc3ccc4c(c3)C(=O)N(C3CCC(=O)NC3=O)C4=O)C2)C1 (stereo not shown)
100 to 1000 nM

Report value: DC50, system: Nanoluciferase-BRD9 fusion protein (Homo sapiens (Human), UniProt Q9H8M2), compound: COc1cc(-c2cn(C)c(=O)c3cnccc23)cc(OC)c1CN1CCC2(CC1)CN(CCCCOc1ccc3c(c1)C(=O)N(C1CCC(=O)NC1=O)C3=O)CCO2 (stereo not shown)
< 10 nM

Report value: DC50, system: Nanoluciferase-BRD9 fusion protein (Homo sapiens (Human), UniProt Q9H8M2), compound: COc1cc(-c2cn(C)c(=O)c3cnccc23)cc(OC)c1CN1CCC2(C[C@@H]2NC(=O)CCOCCOc2ccc3c(c2)C(=O)N(C2CCC(=O)NC2=O)C3=O)C1 (stereo partly shown)
10 to 100 nM

Report value: DC50, system: Nanoluciferase-BRD9 fusion protein (Homo sapiens (Human), UniProt Q9H8M2), compound: COc1cc(-c2cn(C)c(=O)c3cnccc23)cc(OC)c1CN1CC2(CC(NC(=O)CCOCCOc3cccc4c3C(=O)N(C3CCC(=O)NC3=O)C4=O)C2)C1 (stereo not shown)
10 to 100 nM

Report value: DC50, system: Nanoluciferase-BRD9 fusion protein (Homo sapiens (Human), UniProt Q9H8M2), compound: COc1cc(-c2cn(C)c(=O)c3cnccc23)cc(OC)c1CN(C)CC1CC2(C1)CN(C(=O)CCOCCOc1cccc3c1C(=O)N(C1CCC(=O)NC1=O)C3=O)C2 (stereo not shown)
10 to 100 nM

Report value: DC50, system: Nanoluciferase-BRD9 fusion protein (Homo sapiens (Human), UniProt Q9H8M2), compound: COc1cc(-c2cn(C)c(=O)c3cnccc23)cc(OC)c1CN1CC(S(=O)(=O)NCCOCCNc2cccc3c2C(=O)N(C2CCC(=O)NC2=O)C3=O)C1 (stereo not shown)
< 10 nM

Report value: DC50, system: Nanoluciferase-BRD9 fusion protein (Homo sapiens (Human), UniProt Q9H8M2), compound: COc1cc(-c2cn(C)c(=O)c3cnccc23)cc(OC)c1CN1CC(CCNC(=O)CCOCCOc2cccc3c2C(=O)N(C2CCC(=O)NC2=O)C3=O)C1 (stereo not shown)
100 to 1000 nM

Report value: DC50, system: Nanoluciferase-BRD9 fusion protein (Homo sapiens (Human), UniProt Q9H8M2), compound: COc1cc(-c2cn(C)c(=O)c3cnccc23)cc(OC)c1CN1CCC(OC2CCN(C(=O)CCOCCOc3cccc4c3C(=O)N(C3CCC(=O)NC3=O)C4=O)CC2)CC1 (stereo not shown)
10 to 100 nM

Report value: DC50, system: Nanoluciferase-BRD9 fusion protein (Homo sapiens (Human), UniProt Q9H8M2), compound: COc1cc(-c2cn(C)c(=O)c3cnccc23)cc(OC)c1CN1CC(C(=O)NCCCCCCCCNc2cccc3c2C(=O)N(C2CCC(=O)N(C)C2=O)C3=O)C1 (stereo not shown)
> 1000 nM

Report value: DC50, system: Nanoluciferase-BRD9 fusion protein (Homo sapiens (Human), UniProt Q9H8M2), compound: COc1cc(-c2cn(C)c(=O)c3cnccc23)cc(OC)c1CN1CCC2(CC1)CN(CCOc1ccc3c(c1)C(=O)N(C1CCC(=O)NC1=O)C3=O)CCO2 (stereo not shown)
> 1000 nM

Report value: DC50, system: Nanoluciferase-BRD9 fusion protein (Homo sapiens (Human), UniProt Q9H8M2), compound: COc1cc(-c2cn(C)c(=O)c3cnccc23)cc(OC)c1CN1CC(OCc2cn(CCOc3ccc4c(c3)C(=O)N(C3CCC(=O)NC3=O)C4=O)nn2)C1 (stereo not shown)
10 to 100 nM

Report value: DC50, system: Nanoluciferase-BRD9 fusion protein (Homo sapiens (Human), UniProt Q9H8M2), compound: COc1cc(-c2cn(C)c(=O)c3cnccc23)cc(OC)c1CN1CCC2(CC1)CC(NC(=O)CCOCCOc1cccc3c1C(=O)N(C1CCC(=O)NC1=O)C3=O)C2 (stereo not shown)
10 to 100 nM

Report value: DC50, system: Nanoluciferase-BRD9 fusion protein (Homo sapiens (Human), UniProt Q9H8M2), compound: COc1cc(-c2cn(C)c(=O)c3cnccc23)cc(OC)c1CN1CC(N(C)Cc2cccc3c2C(=O)N(C2CCC(=O)NC2=O)C3=O)C1 (stereo not shown)
100 to 1000 nM
